GI50 overview
- EXPERIMENTAL SYSTEM: Ba/F3 [EML4-ALK L1196M] (Homo sapiens, UniProt Q9UM73, L1196M, cells depend on it)
- Construct: IC50(nM) ALK[L1196M]; (Ba/F3); other: 72 hours, CellTiter-Glo; Ba/F3 [EML4-ALK L1196M]; fused on or other part: Q9HC35 (Echinoderm microtubule-associated protein-like 4)
- Sequence (Q9UM73 whole entry L1196M, the tested form may be a part): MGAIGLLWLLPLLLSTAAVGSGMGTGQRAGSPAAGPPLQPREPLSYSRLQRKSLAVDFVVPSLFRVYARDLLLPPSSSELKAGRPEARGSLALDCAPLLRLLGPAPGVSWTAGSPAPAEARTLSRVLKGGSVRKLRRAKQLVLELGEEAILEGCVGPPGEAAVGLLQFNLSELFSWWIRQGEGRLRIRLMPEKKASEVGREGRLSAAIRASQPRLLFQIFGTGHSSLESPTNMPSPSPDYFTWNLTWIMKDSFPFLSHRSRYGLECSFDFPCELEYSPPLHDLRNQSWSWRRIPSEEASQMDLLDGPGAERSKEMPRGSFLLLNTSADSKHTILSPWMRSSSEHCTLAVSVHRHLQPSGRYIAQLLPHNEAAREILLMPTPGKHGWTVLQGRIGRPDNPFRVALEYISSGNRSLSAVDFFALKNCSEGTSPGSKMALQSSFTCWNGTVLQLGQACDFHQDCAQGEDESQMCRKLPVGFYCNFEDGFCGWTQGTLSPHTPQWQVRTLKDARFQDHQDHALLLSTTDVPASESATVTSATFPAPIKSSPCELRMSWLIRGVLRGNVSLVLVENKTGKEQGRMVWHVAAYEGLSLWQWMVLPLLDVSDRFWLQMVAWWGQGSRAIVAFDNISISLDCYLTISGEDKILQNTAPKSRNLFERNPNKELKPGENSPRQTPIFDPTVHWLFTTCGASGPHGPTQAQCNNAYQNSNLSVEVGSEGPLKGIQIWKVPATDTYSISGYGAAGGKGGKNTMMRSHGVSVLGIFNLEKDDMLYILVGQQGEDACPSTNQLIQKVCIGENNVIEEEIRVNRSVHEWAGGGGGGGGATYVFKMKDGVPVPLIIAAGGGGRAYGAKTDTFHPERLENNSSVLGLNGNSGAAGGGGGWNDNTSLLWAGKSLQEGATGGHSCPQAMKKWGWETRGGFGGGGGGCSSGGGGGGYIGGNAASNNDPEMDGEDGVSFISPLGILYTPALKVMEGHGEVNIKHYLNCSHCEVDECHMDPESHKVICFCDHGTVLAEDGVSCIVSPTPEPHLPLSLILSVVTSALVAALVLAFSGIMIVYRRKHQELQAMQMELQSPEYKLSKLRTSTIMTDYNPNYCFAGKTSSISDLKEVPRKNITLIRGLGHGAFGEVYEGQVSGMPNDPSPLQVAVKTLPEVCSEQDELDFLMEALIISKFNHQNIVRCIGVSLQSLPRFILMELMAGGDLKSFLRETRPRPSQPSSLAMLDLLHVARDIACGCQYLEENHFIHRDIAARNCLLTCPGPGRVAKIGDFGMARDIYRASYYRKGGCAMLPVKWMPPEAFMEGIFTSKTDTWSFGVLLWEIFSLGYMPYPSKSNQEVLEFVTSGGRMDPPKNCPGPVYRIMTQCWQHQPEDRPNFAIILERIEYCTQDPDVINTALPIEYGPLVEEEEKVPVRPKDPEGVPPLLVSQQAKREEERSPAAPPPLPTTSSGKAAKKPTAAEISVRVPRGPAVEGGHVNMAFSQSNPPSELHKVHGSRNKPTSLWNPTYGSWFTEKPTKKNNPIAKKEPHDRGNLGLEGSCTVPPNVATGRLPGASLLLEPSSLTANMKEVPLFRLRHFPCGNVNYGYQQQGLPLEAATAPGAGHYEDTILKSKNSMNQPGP
- TEST DESCRIPTION: Cytotoxicity test (CellTiter-Glo), Ba/F3 [EML4-ALK L1196M]
- Type: cell-based
- REPORTED CONDITIONS: 72 hours, CellTiter-Glo; read-out: IC50(nM) ALK[L1196M] (Ba/F3)

• CN1CCN(C2CCN(c3ccc(Nc4ncc(Cl)c(Nc5ccccc5P(C)(C)=O)n4)c(OCC(F)(F)F)n3)CC2)CC1 = 50 to 100 nM
• COc1nc(N2CCC(N(C)C)CC2)ccc1Nc1ncc(Cl)c(Nc2ccccc2P(C)(C)=O)n1 = 50 to 100 nM
• COc1nc(N2CCC(N3CCN(C)CC3)CC2)ccc1Nc1nc(Nc2ccccc2P(C)(C)=O)c2cc[nH]c2n1 = 50 to 100 nM
• COc1nc(N2CCN(C)CC2)ccc1Nc1nc(Nc2ccccc2P(C)(C)=O)c2cc[nH]c2n1 = ≤ 50 nM

Quickly give me recorded GI50 for CN(C)C1CCN(c2ccc(Nc3ncc(Cl)c(Nc4ccccc4P(C)(C)=O)n3)c(OCC(F)(F)F)n2)CC1
50 to 100 nM

Fill in reported GI50 for this entry: CP(C)(=O)c1ccccc1Nc1nc(Nc2ccc(CCN)nc2OCC(F)(F)F)ncc1Cl
400 to 1000 nM

Check the records and state GI50 for CC(C)Oc1nc(N(C)CCN(C)C)ccc1Nc1ncc(Cl)c(Nc2ccccc2P(C)(C)=O)n1
50 to 100 nM
